tested on: MDA-MB-435; assay: NCI tumour cell line growth inhibition, 48 h
Activity calls are given as the source filed them. Rule as the data show it: active = GI50 up to about 1.1 µM and inactive = higher.
Form entry, call: pick from active, inactive

| compound | target.or.test.system | label.value |
| --- | --- | --- |
| COc1ccc(OCC(=N/NC(=O)c2ccncc2)/N=C/c2cccnc2)cc1 | MDA-MB-435 | inactive |
| COc1ccccc1CNC1=Nc2ccncc2S(=O)(=O)N1c1ccccc1 | MDA-MB-435 | inactive |

q: # fetch the recorded call for COc1cc2cc(C(=O)N3CC(COS(C)(=O)=O)c4c3cc(N)c3ccccc43)[nH]c2c(OC)c1OC (configuration not stated) here
a: active

q: How about S=c1nc(N/N=C/c2cccs2)c2cn[nH]c2[nH]1 ?
a: inactive
